Catalogue of pEC50 values
# MEASURED_ON: hGcgR (Homo sapiens, UniProt P47871)
# Sequence (P47871 26-477): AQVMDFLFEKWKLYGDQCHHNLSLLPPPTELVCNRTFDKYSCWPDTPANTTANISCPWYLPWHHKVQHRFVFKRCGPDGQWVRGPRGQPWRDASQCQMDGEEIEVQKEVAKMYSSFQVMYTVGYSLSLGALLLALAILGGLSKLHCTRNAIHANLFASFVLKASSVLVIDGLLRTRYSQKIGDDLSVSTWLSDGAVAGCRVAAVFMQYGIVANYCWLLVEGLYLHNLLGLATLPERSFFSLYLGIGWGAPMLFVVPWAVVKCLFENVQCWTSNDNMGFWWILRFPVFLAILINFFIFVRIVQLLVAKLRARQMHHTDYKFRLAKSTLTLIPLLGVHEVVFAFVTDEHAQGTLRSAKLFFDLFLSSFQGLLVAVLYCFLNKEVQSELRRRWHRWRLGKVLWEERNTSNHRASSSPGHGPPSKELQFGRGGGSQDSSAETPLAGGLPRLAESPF
# ASSAY: Functional cAMP activation in the presence of 0.1% casein (no HSA);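 also: intracellular cAMP rise after 30 min at 37 °C, read by HTRF against a cAMP standard curve, scaled from buffer only (0%) to maximal control ligand response (100%)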
# Assay type: cell-based
# DETAILS: read-out: Relative cAMP EC50, hGcgR
Starred links: 1 amine or outer side, 2 acyl side, 3 side chain; linkers in the order of their positions; H or OH if unused. Non-standard residues stand in square brackets, D forms with d. Groups on a side chain read outwards from the residue. No end group written: not given here. *: point of attachment. C18 diacid = O=C(O)CCCCCCCCCCCCCCCCC(=O)*; αMePhe(2-F) = C[C@](N)(Cc1ccccc1F)C(=O)O; γGlu = O=C(O)[C@H](CCC(=O)[*:2])N[*:1]; αMeY = C[C@](N)(Cc1ccc(O)cc1)C(=O)O; 4Pal = N[C@@H](Cc1ccncc1)C(=O)O; αMeL = CC(C)C[C@](C)(N)C(=O)O; αMeS = C[C@](N)(CO)C(=O)O; Orn = NCCC[C@H](N)C(=O)O; AEEA = NCCOCCOCC(=O)O; Aib = CC(C)(N)C(=O)O
Expect pEC50 as a plain number equal to -log10 of the molar concentration.

Consider the worked cases shown below.
SUBSTANCE	pEC50
H-Y[Aib]QGT[αMePhe(2-F)]TSD[4Pal][αMeS]I[αMeL]LD[Orn]K([AEEA-AEEA-γGlu-C18 diacid])AQ[Aib][Orn]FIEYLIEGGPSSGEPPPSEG-NH2 [Example 491]	8.80
H-Y[Aib]QGT[αMePhe(2-F)]TSD[4Pal][αMeS]I[αMeL]LD[Orn]K([γGlu-γGlu-C18 diacid])AQ[Aib][Orn]FI[dE][αMeY]LSEGGPSSGEPPPSGGEE-NH2 [Example 568]	8.21
Y[Aib]QGT[αMePhe(2-F)]TSD[4Pal][αMeS]I[αMeL]LD[Orn]K([AEEA-γGlu-C18 diacid])AQ[Aib][Orn]FI[dE][αMeY]LIEGGPSSGAPEPSEG-NH2 [Example 429]	8.92
Y[Aib]QGT[αMePhe(2-F)]TSD[4Pal][αMeS]I[αMeL]LD[Orn]K([γGlu-γGlu-C18 diacid])AQ[Aib][Orn]FI[dE][αMeY]LTEGGPSSGEPPPEGTEE-NH2 [Example 597]	8.28

Incoming: Hello, please tell me recorded pEC50 for this one: H-Y[Aib]QGT[αMePhe(2-F)]TSD[4Pal]SILLD[Orn]K([γGlu-γGlu-C18 diacid])AQ[Aib]AFIEYLQEGGPSSGEPPPSGTEE-NH2 [Example 583]
Outgoing: 8.20

Incoming: Return pEC50 (reported value) for this substance: H-Y[Aib]QGT[αMePhe(2-F)]TSD[4Pal]SILLDKK([γGlu-γGlu-C18 diacid])AQ[Aib]AFIE[αMeY]LEEGGPSSGAPPPSGGGE-NH2 [Example 668]
Outgoing: 8.69
